Documented EC50 across a set of molecules
target: Tau K18 fragment (amino acids 244 to 372 of human Tau441) aggregates (Homo sapiens, UniProt P10636); construct: encompassing amino acids 244 to 372 of the longest isoform (2N4R) of human Tau441; assay: Tau K18 disaggregation assay by ThT; settings: 2 μM K18 aggregates, 30 minutes at RT, ThT fluorescence

These recorded examples may help you get a feel for the data.
{"molecule": "COc1ccc(N2CCc3c(c4cc(F)ccc4n3C)C2)cc1", "EC50": "< 10 µM"}
{"molecule": "Cn1c2c(c3cc(F)ccc31)CN(c1ccc3nc(N4CCOCC4)oc3c1)CC2", "EC50": "25 to 50 µM"}
{"molecule": "Fc1cccc2[nH]c3c(c12)CN(c1ccc(N2CCOCC2)nc1)CC3", "EC50": "10 to 25 µM"}
{"molecule": "Cn1c2c(c3cc(F)ccc31)CN(c1ccc(F)cn1)CC2 [Example 96e]", "EC50": "25 to 50 µM"}
{"molecule": "C[C@@H]1CN(c2nc3cc(N4CCc5[nH]c6cc(F)ccc6c5C4)ccc3o2)CCO1", "EC50": "< 10 µM"}

Ask: Name the recorded EC50 of the item `Fc1ccc2[nH]c3c(c2c1)CN(c1cc2sc(N4CCOCC4)nc2cn1)CC3` in your answer.
Reply: < 10 µM

Ask: Using the record for `COc1cccc2c3c([nH]c12)CCN(c1ccc2oc(N4CCOCC4)nc2c1)C3` , state its measured EC50.
Reply: < 10 µM

Ask: Return the recorded EC50 value; entry: `Fc1ccc2c3c([nH]c2c1)CCN(c1nc2cc(N4CCOCC4)ccc2o1)C3`
Reply: < 10 µM

Ask: Name the recorded EC50 of the item `Fc1ccc2[nH]c3c(c2c1)CN(c1ccc2nc(N4CCOCC4)sc2c1)CC3` in your answer.
Reply: < 10 µM

----------
biological target: recombinant full-length (fl)Tau (human Tau 2N4R) aggregates (Homo sapiens); construct: 35 μM of recombinant full-length (fl)Tau in PBS were aggregated; assay: Full-length Tau (flTau) disaggregation assay by Thioflavin T (ThT); details: 2 μM flTau aggregates, 30 minutes at RT, ThT fluorescence
Sequence (P10636 1-441 isoform P10636-8): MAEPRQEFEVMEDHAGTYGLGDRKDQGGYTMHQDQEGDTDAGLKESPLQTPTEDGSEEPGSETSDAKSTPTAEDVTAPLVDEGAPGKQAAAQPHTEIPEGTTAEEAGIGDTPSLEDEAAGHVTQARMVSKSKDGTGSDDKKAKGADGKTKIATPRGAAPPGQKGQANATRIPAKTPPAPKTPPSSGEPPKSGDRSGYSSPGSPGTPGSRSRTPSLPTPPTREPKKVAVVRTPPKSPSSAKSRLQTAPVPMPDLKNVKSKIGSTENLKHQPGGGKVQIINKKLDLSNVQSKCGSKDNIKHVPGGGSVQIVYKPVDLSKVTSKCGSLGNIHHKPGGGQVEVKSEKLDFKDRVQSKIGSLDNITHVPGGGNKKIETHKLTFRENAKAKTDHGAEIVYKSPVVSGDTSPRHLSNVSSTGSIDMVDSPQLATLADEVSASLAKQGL
pEC50: −log10 of the molar value.
Property: pEC50; scope: individual compounds

{"compoundSmiles": "Fc1ccc2[nH]c3c(c2c1)CN(c1ccc(N2CCOCC2)nc1)CC3", "pEC50": "4.30 to 4.60"}

Ask: State, in one line, measured pEC50 of `CN(C)c1nc2ccc(N3CCc4c(c5cc(F)cnc5n4C)C3)cc2s1`
Reply: > 5.00

Ask: Please give the documented pEC50 of `Cn1c2c(c3cc(F)ccc31)CN(c1ccc3sc(N4CCOCC4)nc3c1)CC2`
Reply: 4.30 to 4.60

Ask: Report measured pEC50; entry is `COc1ccc2[nH]c3c(c2c1)CN(c1ccc2nc(N(C)C)oc2c1)CC3`
Reply: 4.60 to 5.00

Ask: Identify measured pEC50 associated with `Cn1c2c(c3cc(F)cnc31)CN(c1ccc3nc(N4CCOCC4)oc3c1)CC2`
Reply: 4.30 to 4.60

Ask: Dear colleague, please send me the reported pEC50 for `CN(C)c1nc2ccc(N3CCc4c(c5ccc(F)cc5n4C)C3)cc2s1` when you can.
Reply: > 5.00

Ask: Look up and state reported pEC50 for `Fc1ccc2c3c([nH]c2c1)CCN(c1ccc2sc(N4CCOCC4)nc2c1)C3`
Reply: > 5.00

Ask: Give a short answer stating reported pEC50 for `Cn1c2c(c3ccc(F)cc31)CN(c1ccc3nc(N4CCOCC4)sc3c1)CC2` .
Reply: > 5.00

Ask: Provide measured pEC50 value, entry: `CN(C)c1nc2ccc(N3CCc4c(c5cc(F)ccc5n4C)C3)cc2s1`
Reply: 4.60 to 5.00

Ask: Entry `Cn1c2c(c3ccc(F)cc31)CN(c1ccc3nc(N4CCOCC4)oc3c1)CC2` needs its pEC50 filled in; supply it.
Reply: > 5.00

Ask: Answer with the recorded pEC50 of `COc1ccc2c(c1)c1c(n2C)CCN(c2ccc3nc(N4CCOCC4)sc3c2)C1` only.
Reply: > 5.00

Ask: Quick one: give measured pEC50 for `Cn1c2c(c3cc(F)cnc31)CN(c1ccc3nc(N4CCOCC4)sc3c1)CC2`
Reply: > 5.00

Ask: Specify reported pEC50 for the compound shown: `COc1ccc2[nH]c3c(c2c1)CN(c1ccc2oc(N4CCOCC4)nc2c1)CC3`
Reply: 4.30 to 4.60

Ask: Tell us which pEC50 value is on record for `COc1ccc2c(c1)c1c(n2C)CCN(c2ccc3oc(N4CCOCC4)nc3c2)C1`
Reply: 4.60 to 5.00

Ask: Provide measured pEC50 value, entry: `COc1ccc2[nH]c3c(c2c1)CN(c1ccc2nc(N4CCOCC4)oc2c1)CC3`
Reply: 4.60 to 5.00

Ask: Could you please provide reported pEC50 for `COc1ccc2c(c1)c1c(n2C)CCN(c2ccc3sc(N(C)C)nc3c2)C1` ? Thanks!
Reply: 4.30 to 4.60

Ask: Dear colleague, please send me the reported pEC50 for `Cn1c2c(c3cc(F)ccc31)CN(c1ccc(N3CCOCC3)nc1)CC2` when you can.
Reply: 4.60 to 5.00

Ask: Tell me its pEC50 given `Cn1c2c(c3ccc(F)cc31)CN(c1ccc3sc(N4CCOCC4)nc3c1)CC2` as the entry.
Reply: > 5.00

----------
target: Tau K18 fragment (amino acids 244 to 372 of human Tau441) aggregates (Homo sapiens, UniProt P10636); construct: encompassing amino acids 244 to 372 of the longest isoform (2N4R) of human Tau441; experiment: Tau K18 disaggregation assay by ThT; conditions: 2 μM K18 aggregates, 30 minutes at RT, ThT fluorescence
Below, each entry is listed alongside its reported EC50.

Consider the following illustrative entries.
{"compound": "Fc1ccc2[nH]c3c(c2c1)CN(c1ccc(N2CCOCC2)cn1)CC3 [Example 76]", "result": "< 10 µM"}
{"compound": "COc1ccc(N2CCc3[nH]c4cc(F)ccc4c3C2)nc1 [Example 141]", "result": "10 to 25 µM"}
{"compound": "Cc1ccc(N2CCc3c(c4cc(F)ccc4n3C)C2)cc1O [Example 147]", "result": "< 10 µM"}
{"compound": "CC(C)Oc1cc(N2CCc3[nH]c4cc(F)ccc4c3C2)ccn1 [Example 139]", "result": "10 to 25 µM"}
{"compound": "Fc1ccc2[nH]c3c(c2c1)CN(c1ccnc(N2CCOCC2)n1)CC3 [Example 99]", "result": "25 to 50 µM"}
{"compound": "COc1ccc2c(c1)c1c(n2C)CCN(c2ccc3oc(N(C)C)nc3c2)C1 [Example 96a]", "result": "10 to 25 µM"}

Ask: # return recorded EC50 for entry Cn1c2c(c3ccccc31)CN(c1ccc(N3CCOCC3)cn1)CC2 [Example 84]
Reply: < 10 µM

Ask: Supply reported EC50 belonging to this compound: COc1ccnc(N2CCc3[nH]c4cc(F)ccc4c3C2)c1 [Example 140]
Reply: < 10 µM

Ask: # return recorded EC50 for input COc1cc(N2CCc3c(c4cc(F)ccc4n3C)C2)ccn1 [Example 95]
Reply: < 10 µM

Ask: Name the recorded EC50 of the item CN(C)c1nc2cc(N3CCc4[nH]c5ccc(F)cc5c4C3)ccc2s1 [Example 11] in your answer.
Reply: < 10 µM

Ask: Quote EC50 reported for CCn1c2c(c3ccc(F)cc31)CN(c1ccc3oc(N4CCOCC4)nc3c1)CC2 [Example 146] please.
Reply: < 10 µM

Ask: Indicate the recorded EC50 value for this compound: Cn1c2c(c3c(F)cccc31)CN(c1ccc(N3CCOCC3)nc1)CC2 [Example 83]
Reply: < 10 µM

Ask: Check the records and state EC50 for COCCNc1nc2cc(N3CCc4[nH]c5cc(F)ccc5c4C3)ccc2o1 [Example 118]
Reply: 10 to 25 µM

Ask: Provide EC50 value for the following compound: Cc1cccc2c3c([nH]c12)CCN(c1ccc2oc(N4CCOCC4)nc2c1)C3 [Example 137]
Reply: < 10 µM

Ask: Write down EC50 measured for item CCOc1ccc2[nH]c3c(c2c1)CN(c1ccc2oc(N4CCOCC4)nc2c1)CC3 [Example 136]
Reply: 10 to 25 µM

----------
molecular target: Tau K18 fragment (amino acids 244 to 372 of human Tau441) aggregates (Homo sapiens, UniProt P10636); construct: encompassing amino acids 244 to 372 of the longest isoform (2N4R) of human Tau441; experiment: Tau K18 disaggregation assay by ThT; conditions: 2 μM K18 aggregates, 30 minutes at RT, ThT fluorescence
observable: EC50

{"compoundSmiles": "Fc1ccc2[nH]c3c(c2c1)CN(c1ccc2ccc(N4CCOCC4)nc2c1)CC3", "result": "10 to 25 µM"}

Ask: Specify measured EC50 for `Cn1c2c(c3ccccc31)CN(c1ccc(N3CCOCC3)nc1)CC2` .
Reply: < 10 µM

Ask: Respond only with EC50 recorded for `Fc1ccc2c3c([nH]c2c1)CCN(c1nc2ccc(N4CCOCC4)cc2o1)C3`
Reply: < 10 µM

Ask: State its EC50: `N#Cc1ccc(N2CCc3[nH]c4cc(F)ccc4c3C2)nc1`
Reply: < 10 µM

Ask: Return reported EC50. Input compound: `COc1ccc2[nH]c3c(c2c1)CN(c1ccc2oc(N4CCOCC4)nc2c1)CC3`
Reply: < 10 µM

Ask: # return recorded EC50 for entry `Fc1ccc2[nH]c3c(c2c1)CN(c1ncc2nc(N4CCOCC4)sc2n1)CC3`
Reply: < 10 µM
